# Test system: NCI-H460 lung
# Measurement protocol: NCI tumour cell line growth inhibition, 48 h
Property: TGI

Guide cases for TGI, answers given:
Nc1ccc(S(=O)(=O)NCCS(=O)(=O)O)cc1 | > 100 µM
CNC1=CC(=O)C2=C(C1=O)C1C3=C(C(=O)C(Br)=C(OC)C3=O)C2c2ccccc21 (stereo not given) | > 50 µM
CN(N=O)C(=O)Nc1ccc(C(=O)O)cc1 | > 100 µM
COc1ccc(OC)c([N+](=O)[O-])c1-c1nc2sc(C)c(C)n2c1/C=N/N=C(N)N | > 100 µM

// switching to the query compound
Reported TGI ( Cc1cccc(/C=C2/C(=O)Nc3ccccc32)n1 ) = > 81.2 µM
